Tested on: P388 leukemia ip, CD2F1 mice, survival T/C
Experimental protocol: NCI In Vivo Anticancer Drug Screen. Data for tumor model P388 Leukemia (intraperitoneal) in CD2F1 (CDF1) mice
Assay setup: endpoint: median survival time; dose: 25.0 mg/kg/injection; schedule: Q04DX003 (ip); vehicle: Klucel (hydroxypropylcellulose) (HPC)
Toxic doses and inconclusive results are not listed. The calls were made as follows: active = survival T/C of 150% or more; inactive = T/C below 125% in these data.
Answer with one of the outcomes active, inactive

Examples from the recorded data:
INSERT INTO assay_data (compound_structure, tested_target, cat) VALUES
  ('CN([NH-])C(=S)[S-].CN([NH-])C(=S)[S-].[Pt+4]', 'P388 leukemia ip, CD2F1 mice, survival T/C', 'inactive'),
  ('COc1cc(NCc2ccc3nc(N)nc(N)c3c2C)cc(OC)c1OC', 'P388 leukemia ip, CD2F1 mice, survival T/C', 'active'),
  ('C=C1C(=O)O[C@@H]2/C=C(\C)CC/C=C(/C)CC[C@@H]12', 'P388 leukemia ip, CD2F1 mice, survival T/C', 'inactive'),
  ('CCCCSP(Oc1ccccc1)SCCCC', 'P388 leukemia ip, CD2F1 mice, survival T/C', 'inactive');

Continue with the next compound.
Test call for this compound, please: `COc1cc2c(c(OC)c1OC)C(=O)CCC2`
inactive

---

System: P388 leukemia ip, CD2F1 mice, survival T/C
Experimental protocol: NCI In Vivo Anticancer Drug Screen. Data for tumor model P388 Leukemia (intraperitoneal) in CD2F1 (CDF1) mice
Assay setup: endpoint: median survival time; dose: 240.0 mg/kg/injection; schedule: Q01DX005 (ip); vehicle: saline with Tween-80; higher = longer survival
Toxic doses and inconclusive results are not listed.
Exercise: state measured T/C for each of the molecules provided.

// worked examples, T/C included
INSERT INTO results (molecule, recorded_value) VALUES
  ('CCOC(=O)c1cc2nc(C(C)C)n(Cc3ccccc3)c2cc(C(=O)OCC)c1=O', '89 % of control'),
  ('COC1=NC2(C)C(C)=C(c3ccccc3)C1(C)c1ccccc12 (stereo unspecified)', '99 % of control'),
  ('O=C(CNC(=O)c1ccccc1)N/N=C/c1ccccc1O', '100 % of control');

For every listed record, write down its T/C.
1. O=C(c1ccc(Cl)cc1)c1cc2ccccc2oc1=O
2. CC1=CC2N(C=C1)C(c1ccc(Cl)cc1)=NON2c1cc(C)ccn1 (stereo unspecified)
3. Cc1nc(Nc2ccccc2)c(C#N)c(=O)[nH]1

1: 93 % of control; 2: 93 % of control; 3: 86 % of control

---

I'd appreciate it if you could supply T/C values for the items below.
System: P388 leukemia ip, CD2F1 mice, survival T/C
Experimental protocol: NCI In Vivo Anticancer Drug Screen. Data for tumor model P388 Leukemia (intraperitoneal) in CD2F1 (CDF1) mice
Assay setup: endpoint: median survival time; dose: 100.0 mg/kg/injection; schedule: Q04DX003 (ip); vehicle: Klucel (hydroxypropylcellulose) (HPC); higher = longer survival
Inconclusive results and toxic doses are left out.

Some entries whose results are on file:
INSERT INTO measurements (molecule, tested_target, observed_property, recorded_value) VALUES
  ('O=C1CCC(N(Cc2ccccc2)Cc2ccccc2)C(=O)O1 (stereo not drawn)', 'P388 leukemia ip, CD2F1 mice, survival T/C', 'T/C', '112 % of control'),
  ('NS(=O)(=O)c1cc([N+](=O)[O-])c(SSc2sc(S(N)(=O)=O)cc2[N+](=O)[O-])s1', 'P388 leukemia ip, CD2F1 mice, survival T/C', 'T/C', '107 % of control');

# next molecule below
Return T/C (reported value) for this molecule: `CCCCSP(Oc1ccccc1)SCCCC`
109 % of control
